Entries annotated with measured GI50
# System: M14
# experiment notes: Growth inhibition of human M14 cells after 48 hrs by sulforhodamine B assay
# Assay type: functional
# condition details: M14, 48 h
readout name: GI50

1. COc1cc(/C=C/c2cc3c(c(SC)c2)O[C@]2(C)CC[C@@H](O)C(C)(C)[C@H]2C3)cc(O)c1C/C=C(\C)CCC=C(C)C = 8.13 µM
2. COCOc1cc(/C=C/c2cc(CO)c3c(c2)C[C@@H]2C(C)(C)[C@H](O)CC[C@@]2(C)O3)cc(OC)c1C/C=C(\C)CCC=C(C)C = 0.692 µM
3. COCOc1cc(/C=C/c2cc(C=O)c3c(c2)C[C@@H]2C(C)(C)[C@H](O)CC[C@@]2(C)O3)cc(OC)c1C/C=C(\C)CCC=C(C)C = 11.2 µM
4. COc1cc(/C=C/c2cc(F)c3c(c2)C[C@@H]2C(C)(C)[C@H](O)CC[C@@]2(C)O3)cc(O)c1C/C=C(\C)CCC=C(C)C = 12.9 µM
5. COc1cc(/C=C/c2cc(O)c3c(c2)C[C@@H]2C(C)(C)[C@H](O)CC[C@@]2(C)O3)cc(O)c1C/C=C(\C)CCC=C(C)C = 1.1 µM
6. COc1cc(/C=C/c2ccc3c(c2)C[C@@H]2C(C)(C)[C@H](O)CC[C@@]2(C)O3)cc(O)c1C/C=C(\C)CCC=C(C)C = 13.8 µM

* * *

# System: PC-3
# experiment notes: Growth inhibition of human PC3 cells after 48 hrs by sulforhodamine B assay
# Type: functional
# condition details: PC-3, 48 h, read-out: pTGI (converted)
readout name: TGI (µM)

1) COc1cc(/C=C/c2cc(F)c3c(c2)C[C@@H]2C(C)(C)[C@H](O)CC[C@@]2(C)O3)cc(O)c1C/C=C(\C)CCC=C(C)C = 25.1
2) COc1cc(/C=C/c2ccc3c(c2)C[C@@H]2C(C)(C)[C@H](O)CC[C@@]2(C)O3)cc(O)c1C/C=C(\C)CCC=C(C)C = 56.2
3) COc1cc(/C=C/c2cc(O)c3c(c2)C[C@@H]2C(C)(C)[C@H](O)CC[C@@]2(C)O3)cc(O)c1C/C=C(\C)CCC=C(C)C = 5.25

* * *

# Test system: NCI-H226
# experiment notes: Growth inhibition of human NCI-H226 cells after 48 hrs by sulforhodamine B assay
# Assay type: functional
# condition details: NCI-H226, 48 h, read-out: pTGI (converted)
Each entry below carries its recorded TGI.
readout name: TGI (µM)

1. COc1cc(/C=C/c2cc(F)c3c(c2)C[C@@H]2C(C)(C)[C@H](O)CC[C@@]2(C)O3)cc(O)c1C/C=C(\C)CCC=C(C)C = 45.7
2. COc1cc(/C=C/c2ccc3c(c2)C[C@@H]2C(C)(C)[C@H](O)CC[C@@]2(C)O3)cc(O)c1C/C=C(\C)CCC=C(C)C = 56.2
3. COc1cc(/C=C/c2cc3c(c(OC)c2)O[C@]2(C)CC[C@@H](O)C(C)(C)[C@H]2C3)cc(O)c1C/C=C(\C)CCC=C(C)C = 12.3
4. COCOc1cc(/C=C/c2cc(CO)c3c(c2)C[C@@H]2C(C)(C)[C@H](O)CC[C@@]2(C)O3)cc(OC)c1C/C=C(\C)CCC=C(C)C = 30.2
5. COc1cc(/C=C/c2cc3c(c(SC)c2)O[C@]2(C)CC[C@@H](O)C(C)(C)[C@H]2C3)cc(O)c1C/C=C(\C)CCC=C(C)C = 39.8
6. COc1cc(/C=C/c2cc(O)c3c(c2)C[C@@H]2C(C)(C)[C@H](O)CC[C@@]2(C)O3)cc(O)c1C/C=C(\C)CCC=C(C)C = 21.4
